# Target: acetylcholine receptor (Homo sapiens)
# Method summary: SPR binding affinity (RU) of optimized 5mer/6mer/7mer peptides, Examples 6-7
# Procedure: Based on the frequencies of occurrence of the top 7 amino acids from Table 7 in Example 5, 600 peptides comprising these amino acids (top combinations) and those comprising the 13 less frequently occurring amino acids (bottom combinations) were synthesized for each series of 5mer, 6mer-1, and 6mer-2. The binding affinity of each sequence for the acetylcholine receptor was measured using Surface Plasmon Resonance (SPR) analysis method. The peptides were tested at a concentration of 10 μM. […]
No end group written: not given here.
Endpoint name: Kd (nM)
Report the value in nM with no unit label.

# lookup: RKRIRR [6mer-1-43, RKRIRR] on acetylcholine receptor (Homo sapiens), Kd = 609

----------
# Target: acetylcholine receptor (Homo sapiens, UniProt P02708)
# Sequence (P02708 21-457): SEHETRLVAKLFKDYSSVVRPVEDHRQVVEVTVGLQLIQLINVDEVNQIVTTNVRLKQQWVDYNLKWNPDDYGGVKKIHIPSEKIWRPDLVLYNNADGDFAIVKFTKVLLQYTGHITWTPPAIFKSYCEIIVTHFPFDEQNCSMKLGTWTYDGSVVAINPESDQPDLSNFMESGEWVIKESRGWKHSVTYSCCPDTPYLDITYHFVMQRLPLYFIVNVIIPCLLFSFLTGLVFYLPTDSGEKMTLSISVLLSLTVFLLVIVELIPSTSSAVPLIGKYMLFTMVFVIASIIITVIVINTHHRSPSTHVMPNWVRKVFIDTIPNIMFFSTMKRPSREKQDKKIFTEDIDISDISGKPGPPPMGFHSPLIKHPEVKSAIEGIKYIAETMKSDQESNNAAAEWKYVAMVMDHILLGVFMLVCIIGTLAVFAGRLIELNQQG
# Method summary: SPR binding affinity (RU) of optimized 5mer/6mer/7mer peptides, Examples 6-7
# Test conditions: SPR, peptides tested at 10 μM; 6mer-1 Top sequence (top combinations)
No end group written: not given here.
Field: Binding affinity. Provide a value for each of the substances that follow.

Consider 6mer-1-200 (RKLYQR) . Its measured Binding affinity is 142 Ru

Consider 6mer-1-31 (KRLYCR) . Its measured Binding affinity is 121 Ru

Consider 6mer-1-168 (KRWFCK) . Its measured Binding affinity is 131 Ru

Consider 6mer-1-15 (KRQICK) . Its measured Binding affinity is 123 Ru

Consider 6mer-1-109 (KKRYLR) . Its measured Binding affinity is 148 Ru

Consider 6mer-1-165 (KKWFTK) . Its measured Binding affinity is 148 Ru

Consider 6mer-1-99 (RKVVYR) . Its measured Binding affinity is 136 Ru

Consider 6mer-1-21 (RKWYLK) . Its measured Binding affinity is 137 Ru

Consider 6mer-1-140 (KRQVQR) . Its measured Binding affinity is 148 Ru

Consider 6mer-1-113 (KRGVQK) . Its measured Binding affinity is 148 Ru

Consider 6mer-1-39 (RKVYQK) . Its measured Binding affinity is 139 Ru

Consider 6mer-1-199 (KKQVQK) . Its measured Binding affinity is 151 Ru

Consider 6mer-1-173 (RKQYYR) . Its measured Binding affinity is 123 Ru

Consider 6mer-1-130 (RKQVLR) . Its measured Binding affinity is 142 Ru

Consider 6mer-1-19 (KRSFYR) . Its measured Binding affinity is 135 Ru

Consider 6mer-1-117 (KRLFTR) . Its measured Binding affinity is 142 Ru

Consider 6mer-1-177 (KRGYRR) . Its measured Binding affinity is 121 Ru

Consider 6mer-1-112 (KKWVCR) . Its measured Binding affinity is 148 Ru

Consider 6mer-1-20 (KKSRYK) . Its measured Binding affinity is 147 Ru

Consider 6mer-1-197 (RRSIRR) . Its measured Binding affinity is 139 Ru

Consider 6mer-1-202 (RRQLTK) . Its measured Binding affinity is 154 Ru

Consider 6mer-1-10 (KRWRLK) . Its measured Binding affinity is 139 Ru

Consider 6mer-1-163 (KRLQTK) . Its measured Binding affinity is 147 Ru

Consider 6mer-1-84 (RRGQTK) . Its measured Binding affinity is 142 Ru

Consider 6mer-1-192 (KRQYQR) . Its measured Binding affinity is 127 Ru

Consider 6mer-1-11 (KRQFTK) . Its measured Binding affinity is 139 Ru

Consider 6mer-1-94 (RKVQQK) . Its measured Binding affinity is 142 Ru

Consider 6mer-1-151 (KRGVRR) . Its measured Binding affinity is 145 Ru

Consider 6mer-1-41 (RKGITK) . Its measured Binding affinity is 122 Ru

Consider RKRIRR [6mer-1-43, RKRIRR] . Its measured Binding affinity is 548 Ru

Consider 6mer-1-51 (RRVLYK) . Its measured Binding affinity is 127 Ru

Consider 6mer-1-87 (KKQVYK) . Its measured Binding affinity is 139 Ru

Consider 6mer-1-96 (KRGVRK) . Its measured Binding affinity is 125 Ru

Consider 6mer-1-29 (KRLISR) . Its measured Binding affinity is 124 Ru

Consider 6mer-1-13 (KRQIQR) . Its measured Binding affinity is 147 Ru

Consider 6mer-1-14 (RKRFLK) . Its measured Binding affinity is 145 Ru

Consider 6mer-1-102 (RRRYRR) . Its measured Binding affinity is 127 Ru

Consider 6mer-1-146 (KRGRRR) . Its measured Binding affinity is 139 Ru

Consider 6mer-1-193 (KRVQLK) . Its measured Binding affinity is 149 Ru

Consider 6mer-1-136 (RRWLYK) . Its measured Binding affinity is 148 Ru

Consider 6mer-1-64 (RKQFTK) . Its measured Binding affinity is 154 Ru

Consider 6mer-1-2 (RKQILR) . Its measured Binding affinity is 142 Ru

Consider 6mer-1-40 (KRSQYK) . Its measured Binding affinity is 121 Ru

Consider 6mer-1-186 (RRRVYK) . Its measured Binding affinity is 147 Ru

Consider 6mer-1-164 (KRGQYK) . Its measured Binding affinity is 145 Ru

Consider 6mer-1-27 (KRSFTK) . Its measured Binding affinity is 142 Ru

Consider 6mer-1-61 (KRSYCK) . Its measured Binding affinity is 121 Ru

Consider 6mer-1-36 (RKWQQK) . Its measured Binding affinity is 124 Ru

Consider 6mer-1-143 (KRGVLR) . Its measured Binding affinity is 145 Ru

Consider 6mer-1-157 (KKSLLR) . Its measured Binding affinity is 123 Ru

Consider 6mer-1-47 (KRRLLK) . Its measured Binding affinity is 149 Ru

Consider 6mer-1-105 (KKSISK) . Its measured Binding affinity is 141 Ru

Consider 6mer-1-111 (RKVICR) . Its measured Binding affinity is 144 Ru

Consider 6mer-1-155 (RRVRSR) . Its measured Binding affinity is 127 Ru

Consider 6mer-1-187 (RKLFYK) . Its measured Binding affinity is 139 Ru

Consider 6mer-1-55 (KRSIYR) . Its measured Binding affinity is 133 Ru

Consider 6mer-1-69 (RKVRRR) . Its measured Binding affinity is 142 Ru

Consider 6mer-1-154 (KKLYSR) . Its measured Binding affinity is 153 Ru

Consider 6mer-1-30 (RRQVRR) . Its measured Binding affinity is 154 Ru

Consider 6mer-1-53 (KRVIQR) . Its measured Binding affinity is 123 Ru

Consider 6mer-1-98 (KRLQCR) . Its measured Binding affinity is 154 Ru

Consider 6mer-1-18 (KKQFTR) . Its measured Binding affinity is 145 Ru

Consider 6mer-1-75 (RRQYQK) . Its measured Binding affinity is 139 Ru

Consider 6mer-1-67 (RRSYTR) . Its measured Binding affinity is 135 Ru

Consider 6mer-1-122 (KKLIRK) . Its measured Binding affinity is 139 Ru

Consider 6mer-1-93 (KRWIRR) . Its measured Binding affinity is 136 Ru

Consider 6mer-1-185 (KRQLRK) . Its measured Binding affinity is 153 Ru

Consider 6mer-1-142 (KKVYYK) . Its measured Binding affinity is 123 Ru

Consider 6mer-1-180 (RKLVRK) . Its measured Binding affinity is 146 Ru

----------
# Target: acetylcholine receptor (Homo sapiens, UniProt P02708)
# Method summary: SPR binding affinity (RU) of optimized 5mer/6mer/7mer peptides, Examples 6-7
# Test conditions: 6mer-2 Top sequence; SPR; peptides tested at 10 μM
Endpoint name: Binding affinity (Ru)
Report the value in Ru with no unit label.

Consider 6mer-2-150 (KRILKR) . Its measured Binding affinity is 136

Consider 6mer-2-99 (RQRSRR) . Its measured Binding affinity is 151

Consider 6mer-2-147 (RQYTKR) . Its measured Binding affinity is 133

Consider 6mer-2-161 (KWRRKK) . Its measured Binding affinity is 154

Consider 6mer-2-145 (RQYYKK) . Its measured Binding affinity is 128

Consider 6mer-2-41 (KQLCKR) . Its measured Binding affinity is 142

Consider 6mer-2-18 (RSILRR) . Its measured Binding affinity is 124

Consider 6mer-2-31 (KSYQRK) . Its measured Binding affinity is 121

Consider 6mer-2-8 (KSLQKK) . Its measured Binding affinity is 135

Consider 6mer-2-81 (RRVSRR) . Its measured Binding affinity is 121

Consider 6mer-2-28 (KVLSRK) . Its measured Binding affinity is 142

Consider 6mer-2-172 (KVIRKK) . Its measured Binding affinity is 128

Consider 6mer-2-171 (RQQTRR) . Its measured Binding affinity is 139

Consider 6mer-2-17 (RWVTRR) . Its measured Binding affinity is 142

Consider 6mer-2-40 (RRYRKK) . Its measured Binding affinity is 153

Consider 6mer-2-7 (KSRCRK) . Its measured Binding affinity is 126

Consider 6mer-2-10 (KVFSKK) . Its measured Binding affinity is 124

Consider 6mer-2-53 (KSLSRR) . Its measured Binding affinity is 125

Consider 6mer-2-48 (RRFRKK) . Its measured Binding affinity is 153

Consider 6mer-2-170 (RQYQKK) . Its measured Binding affinity is 128

Consider 6mer-2-97 (RQFYRK) . Its measured Binding affinity is 154

Consider 6mer-2-23 (RWVRKK) . Its measured Binding affinity is 148

Consider 6mer-2-164 (KRQRRK) . Its measured Binding affinity is 135

Consider 6mer-2-25 (KQVQKR) . Its measured Binding affinity is 148

Consider 6mer-2-156 (KGLQRR) . Its measured Binding affinity is 127

Consider 6mer-2-144 (KSIRRK) . Its measured Binding affinity is 133

Consider 6mer-2-190 (KVYLKR) . Its measured Binding affinity is 148

Consider 6mer-2-85 (KSQYKR) . Its measured Binding affinity is 137

Consider 6mer-2-44 (KSVRRK) . Its measured Binding affinity is 145

Consider 6mer-2-154 (KRVTKR) . Its measured Binding affinity is 148

Consider 6mer-2-61 (RGFQRK) . Its measured Binding affinity is 148

Consider 6mer-2-138 (KQRRRK) . Its measured Binding affinity is 153

Consider 6mer-2-45 (RSLTKK) . Its measured Binding affinity is 121

Consider 6mer-2-52 (KRQRKK) . Its measured Binding affinity is 136

Consider 6mer-2-3 (KVYSRK) . Its measured Binding affinity is 148

Consider 6mer-2-148 (KGQYKK) . Its measured Binding affinity is 145

Consider 6mer-2-9 (KLICRK) . Its measured Binding affinity is 139

Consider 6mer-2-193 (KWISKR) . Its measured Binding affinity is 127

Consider 6mer-2-175 (KVYLRK) . Its measured Binding affinity is 137

Consider 6mer-2-160 (RVRRKK) . Its measured Binding affinity is 121

Consider 6mer-2-108 (RVVYKK) . Its measured Binding affinity is 153

Consider 6mer-2-62 (RLVTKR) . Its measured Binding affinity is 147

Consider 6mer-2-79 (RQLSKR) . Its measured Binding affinity is 135

Consider 6mer-2-93 (RWQTRR) . Its measured Binding affinity is 133

Consider 6mer-2-12 (RQFQRK) . Its measured Binding affinity is 147

Consider 6mer-2-123 (RQFTKR) . Its measured Binding affinity is 146

Consider 6mer-2-60 (RRLSKK) . Its measured Binding affinity is 148

Consider 6mer-2-107 (RGVYRK) . Its measured Binding affinity is 144

Consider 6mer-2-39 (RWRYRK) . Its measured Binding affinity is 137

Consider 6mer-2-72 (KRIQKK) . Its measured Binding affinity is 144

Consider 6mer-2-64 (KSVSKK) . Its measured Binding affinity is 136

Consider RWRYKR [6mer-2-136] . Its measured Binding affinity is 194

Consider 6mer-2-92 (KVVCKR) . Its measured Binding affinity is 131

Consider 6mer-2-43 (RVITKR) . Its measured Binding affinity is 146

Consider 6mer-2-100 (RRRCRR) . Its measured Binding affinity is 142

Consider 6mer-2-185 (RGYQKR) . Its measured Binding affinity is 137

Consider 6mer-2-88 (KSFQRR) . Its measured Binding affinity is 141

Consider 6mer-2-176 (RWIYRR) . Its measured Binding affinity is 144

Consider 6mer-2-102 (KVYQKK) . Its measured Binding affinity is 139

Consider 6mer-2-24 (KGIQRK) . Its measured Binding affinity is 141

Consider 6mer-2-34 (KVFRRK) . Its measured Binding affinity is 124

Consider 6mer-2-75 (KLYTRK) . Its measured Binding affinity is 133

Consider 6mer-2-59 (RVLSRK) . Its measured Binding affinity is 123

Consider 6mer-2-5 (RWVSKR) . Its measured Binding affinity is 124

Consider 6mer-2-27 (KVIRRK) . Its measured Binding affinity is 128

Consider 6mer-2-178 (KWLLRR) . Its measured Binding affinity is 133

Consider 6mer-2-153 (RVYSRR) . Its measured Binding affinity is 124

Consider 6mer-2-76 (RRQSRK) . Its measured Binding affinity is 142

Consider 6mer-2-173 (RQQCKK) . Its measured Binding affinity is 127

Consider 6mer-2-37 (KLLYRK) . Its measured Binding affinity is 148

Every entry's value here was drawn from patent US20250011363A1.
